- Test system: SF-268
- protocol-text: NCI tumour cell line growth inhibition, 48 h
Active and inactive are the calls of the source. No stated cut-off is given here; in the data, active = GI50 up to about 1.1 µM and inactive = higher.
experimental-endpoint: GI50

{"columns": ["molecule", "GI50"],
 "data": [
  ["CCCn1cc2c(SC)nc(SC)nc2n1", "> 100 µM (inactive)"],
  ["Oc1cccc2nc3cc(CN4CCOCC4)c(CN4CCOCC4)cc3nc12", "48.2 µM (inactive)"],
  ["N#Cc1c(N)nc(Sc2ccccc2N)c(C#N)c1-c1ccccc1", "17.8 µM (inactive)"]
]}

GI50 recorded for this molecule, O=C1CCCn2c(nc3ccccc32)N1 , is > 100 µM (inactive)

GI50 recorded for this molecule, CCCCCCCCCCOC(=O)c1cc[n+](C)cc1 , is 20 µM (inactive)

GI50 recorded for this molecule, COC1=CC23C=CC1[C@@H](c1ccccc1)C2=C(C)C(=O)N3C(=O)NC1CCCCC1 (some centres not stated) , is 15.8 µM (inactive)

###

Measured GI50 of individual entries
- Test system: SNB-78
- protocol-text: NCI tumour cell line growth inhibition, 48 h
The source made the active and inactive calls. No stated cut-off is given here; in the data, active = GI50 up to about 1.1 µM and inactive = higher.

Solved entries (count: 2):
{"columns": ["compound", "GI50"],
 "data": [
  ["CC(C)(C)C1CCC2(CC1)c1[nH]c3ccccc3c1C1(CCC(C(C)(C)C)CC1)c1[nH]c3ccccc3c12 (stereo not drawn)", "> 100 µM (inactive)"],
  ["O=C(O)C1Cc2[nH]c3ccccc3c2C2CCCC12 (stereo not drawn)", "> 100 µM (inactive)"]
]}

Record C[C@]12CCC3c4ccc(OC(=O)c5ccccc5)cc4CC[C@H]3C1CC[C@@H]2OC(=O)C12OC1CCC2=O (stereo partly drawn) / SNB-78, GI50 recorded as 6.34 µM (inactive)

###

- System: KM12
- protocol-text: NCI tumour cell line growth inhibition, 48 h
The source made the active and inactive calls. No stated cut-off is given here; in the data, active = GI50 up to about 1.1 µM and inactive = higher.
Measured GI50 of individual entries

Solved entries (count: 3):
{"columns": ["compound", "tested-on", "experimental-endpoint", "result"],
 "data": [
  ["CC1CN=C(Nc2ccc(F)c(Cl)c2)S1 (stereo unspecified)", "KM12", "GI50", "> 100 µM (inactive)"],
  ["COc1cccc(-c2nccc3c(OCc4ccccc4)c(OC)c(OC)cc23)c1", "KM12", "GI50", "> 100 µM (inactive)"],
  ["CC(C)(C)OC(=O)NCC(=O)N(CCc1ccc(Cl)c(Cl)c1)CCN1CCCC1", "KM12", "GI50", "16.3 µM (inactive)"]
]}

GI50 recorded for this compound, C=C(CCCCCCCCC)CC(=O)SCCNC(=O)CCNC(=O)C(O)C(C)(C)COP(=O)(O)OP(=O)(O)OCC1OC(n2cnc3c(N)ncnc32)C(O)C1OP(=O)(O)O (stereo unspecified) , is 52.6 µM (inactive)

GI50 recorded for this compound, CCOC(=O)c1c(-c2ccc(Br)cc2)ccn1C , is > 10 µM (inactive)

GI50 recorded for this compound, C=C1C(=O)OCC2C(C(=O)O)=CC3C(C)C(C)=CC123 (stereo unspecified) , is 9.93 µM (inactive)

GI50 recorded for this compound, NC(=O)c1csc(CCCCCCc2nc(C(N)=O)cs2)n1 , is > 59.4 µM (inactive)

GI50 recorded for this compound, Cc1cc(O)c(C(C)C)cc1C(=S)Nc1ccc(Cl)cc1 , is 10.1 µM (inactive)

GI50 recorded for this compound, CN(C)CC(CC1=C(CC(CN(C)C)N(C)C)CCC1)N(C)C (stereo unspecified) , is > 100 µM (inactive)

GI50 recorded for this compound, COc1ccc(OC)c2sc(N3C(=O)/C(=C/c4cccc([N+](=O)[O-])c4)N=C3c3ccccc3)nc12 , is 42.2 µM (inactive)

GI50 recorded for this compound, CCCCCCCCCCCC(=O)OCC1OC(n2cc(F)c(=O)[nH]c2=O)C(N)C(O)C1O (stereo unspecified) , is 77.4 µM (inactive)

###

- Tested on: MCF7
- protocol-text: NCI tumour cell line growth inhibition, 48 h
The source made the active and inactive calls. Cut-off read from the data, not from the text of the source: active = GI50 up to about 1.1 µM and inactive = higher.
Measured GI50 of individual entries

Solved entries (count: 5):
{"columns": ["compound", "GI50"],
 "data": [
  ["Nc1nc(-c2ccccc2)cc(-c2ccc(F)cc2)c1-c1ccc(Cl)cc1", "41.7 µM (inactive)"],
  ["N#Cc1c(N)nc(Sc2ccccc2N)c(C#N)c1-c1ccccc1", "10.6 µM (inactive)"],
  ["Cc1cc(Cc2c(C)c(C)c(Cc3cc(C)cc(C(C)(C)C)c3O)c(C)c2C)c(O)c(C(C)(C)C)c1", "> 100 µM (inactive)"],
  ["CCCCCCCC/C=C\\CCCCCCCC(=O)O", "104 µM (inactive)"],
  ["O=c1c2cc(-c3ccccc3)sc2nc2n1N=C(c1ccccc1)CS2", "14.6 µM (inactive)"]
]}

GI50 recorded for this compound, COc1ccc(C2=C(OC(=O)N(C)C)c3cccn3-c3cc(Cl)ccc3S2)cc1 , is 8.51 µM (inactive)

###

- Test system: PC-3
- protocol-text: NCI tumour cell line growth inhibition, 48 h
Activity calls are given as the source filed them. Cut-off read from the data, not from the text of the source: active = GI50 up to about 1.1 µM and inactive = higher.
Measured GI50 of individual entries

{"columns": ["compound", "GI50"],
 "data": [
  ["Cc1ccccc1C1CC(=O)CC(c2ccccc2C)C12C(=O)NC(=O)NC2=O (centres undefined)", "> 100 µM (inactive)"],
  ["Fc1c(F)c(F)c2c(c1F)CSc1nc3ccccc3n1-2", "> 100 µM (inactive)"],
  ["CCOC(=O)CCC(C(=O)OCC)n1nnc2ccc(Nc3c(C)[n+]([O-])c4ccc(Cl)cc4[n+]3[O-])cc21 (centres undefined)", "> 100 µM (inactive)"],
  ["COc1cc([C@@]23OC[C@@H]4[C@@H](OC[C@@H]42)c2cc4c(cc23)OCO4)cc(OC)c1OC", "< 0.01 µM (active)"]
]}

GI50 recorded for this compound, O=C(/C=C/c1ccc2c(c1)OCO2)Cc1nc2ccccc2[nH]c1=O , is 23.2 µM (inactive)

GI50 recorded for this compound, COc1ccc(C2=N/C(=C\c3ccccc3)C(=O)O2)cc1 , is > 100 µM (inactive)

GI50 recorded for this compound, COc1ccc(OC)c2sc(N3C(=O)/C(=C/c4cccc([N+](=O)[O-])c4)N=C3c3ccccc3)nc12 , is 59.7 µM (inactive)

GI50 recorded for this compound, COC(=O)[C@]12CC3C=CC1N(C3)C(CBr)c1c2n(S(=O)(=O)c2ccccc2)c2ccccc12 (some centres undefined) , is 42.8 µM (inactive)

GI50 recorded for this compound, COC(=O)c1c(C)[nH]c2c1cc(O)c1nc(C)c(C)nc12 , is 23.2 µM (inactive)

###

- System: HOP-18
- protocol-text: NCI tumour cell line growth inhibition, 48 h
The source made the active and inactive calls. Cut-off read from the data, not from the text of the source: active = GI50 up to about 1.1 µM and inactive = higher.
experimental-endpoint: GI50

{"columns": ["compound", "experimental-endpoint", "result"],
 "data": [
  ["O=C1C(=O)N(c2cc(Cl)ccc2Cl)C(=O)C(=O)C1c1nc2ccccc2o1", "GI50", "63.1 µM (inactive)"],
  ["CN(C)CC(CC1=C(CC(CN(C)C)N(C)C)CCC1)N(C)C (stereo not given)", "GI50", "> 100 µM (inactive)"],
  ["O=C1Nc2ccc(Br)cc2/C1=N/Nc1ccc([N+](=O)[O-])cc1[N+](=O)[O-]", "GI50", "1.12 µM (inactive)"]
]}

Would you kindly look at the next entry?
GI50 recorded for this compound, C=C1C(=O)OCC2C(C(=O)O)=CC3C(C)C(C)=CC123 (stereo not given) , is 12.2 µM (inactive)

###

- System: MDA-N
- protocol-text: NCI tumour cell line growth inhibition, 48 h
The source made the active and inactive calls. No stated cut-off is given here; in the data, active = GI50 up to about 1.1 µM and inactive = higher. Square brackets hold non-standard residues; d marks the D form. Peptide text beside a SMILES is read from it. * marks the point of attachment. ξ: configuration not given here. NMeN = CN[C@@H](CC(N)=O)C(=O)O; NMeV = CN[C@H](C(=O)O)C(C)C; ξNMeV = CNC(C(=O)O)C(C)C; Boc = CC(C)(C)OC(=O)*; ξNMeA = CNC(C)C(=O)O
experimental-endpoint: GI50

Solved entries (count: 5):
{"columns": ["compound", "experimental-endpoint", "result"],
 "data": [
  ["CC1(C)[C@@H](Cn2nnc3c(N)ncnc32)CC[C@@]1(C)CO", "GI50", "> 100 µM (inactive)"],
  ["CCOC(=O)c1sc2nc(SC)nc3c2c1NC(=O)CN3c1ccc(F)cc1", "GI50", "37.9 µM (inactive)"],
  ["O=c1c(/C=C/c2c(O)ccc3ccccc23)nnc2sc(-c3cccc(Br)c3)nn12", "GI50", "28.3 µM (inactive)"],
  ["OCCCN(CCc1ccc(Cl)c(Cl)c1)CCN1CCCC1", "GI50", "17.3 µM (inactive)"],
  ["CCC1(c2ccccc2)Sc2ccccc2-n2cccc2C1=O (centres undefined)", "GI50", "3.5 µM (inactive)"]
]}

GI50 recorded for this compound, C=C(C)C(O)C(O)C[C@@H](C)C1CC[C@]23C[C@]12CCC1[C@@]2(C)CCC(OC(C)=O)C(C)(C)C2CC(OC2OC(CO)C(O)C(O)C2O)[C@]13C (some centres undefined) , is 17.3 µM (inactive)

GI50 recorded for this compound, CSC(=S)N/N=C(\C)c1ccc(S(=O)(=O)N(C)c2ccccc2)cc1 , is 30.3 µM (inactive)

GI50 recorded for this compound, COC(=O)C(C)N(C)C(=O)[C@H](CC(N)=O)N(C)C(=O)[C@@H]1CCCN1C(=O)[C@H](C(C)C)N(C)C(=O)C(C(C)C)N(C)C(=O)[C@@H](NC(=O)OC(C)(C)C)C(C)C (some centres undefined) (Boc-V[ξNMeV][NMeV]P[NMeN][ξNMeA]-OMe) , is > 50 µM (inactive)

GI50 recorded for this compound, CCOC(=O)c1cc(NC(=O)c2ccccc2)c(=O)n2c(cc3c(Cl)cccc32)c1O , is > 100 µM (inactive)

GI50 recorded for this compound, CCCCn1c(C)c(C(=O)CC)c(C(=O)NCCN2CCN(c3ccccc3Cl)CC2)c1C , is 16.2 µM (inactive)

GI50 recorded for this compound, O=C(OCCN=c1c2ccccc2ccc2ccccc12)c1cc([N+](=O)[O-])cc([N+](=O)[O-])c1 , is > 100 µM (inactive)

GI50 recorded for this compound, O=c1[nH]nc(-c2ccccc2)n1/N=C/c1ccco1 , is > 100 µM (inactive)

GI50 recorded for this compound, Cn1c(=O)cc(NNc2ccc(Cl)c(Cl)c2)[nH]c1=O , is 9.06 µM (inactive)

GI50 recorded for this compound, Cc1nn(-c2ccccc2)c(C)c1/C=N/NC(=O)c1sc(=S)n(-c2ccccc2)c1N , is 4.19 µM (inactive)

GI50 recorded for this compound, COc1ccc(C2NC(N)=C(C#N)C3=C2C(C)CCC3)cc1OC (centres undefined) , is > 100 µM (inactive)

GI50 recorded for this compound, CN(C)c1ccc(/C=C/c2sc3ccccc3[n+]2C)cc1 , is 1.16 µM (inactive)

GI50 recorded for this compound, O=S1(=O)OCCOS(=O)(=O)C1C1c2ccccc2-c2ccccc21 , is 36.7 µM (inactive)

GI50 recorded for this compound, O=c1oc2c/c(=C\c3ccc([N+](=O)[O-])cc3)c(=O)c3cccc1c3-2 , is > 100 µM (inactive)

GI50 recorded for this compound, CN(C)C(=O)OC1=CC2CCC(C1)N2C (centres undefined) , is > 100 µM (inactive)
